# Test system: Staphylococcus aureus
# assayName: Antibacterial activity against Staphylococcus aureus ATCC 29213 after 20 hrs by two fold dilution method
# Assay type: functional
# particulars: ATCC 29213, 20 h
assayReadout: MIC (µg/mL)
Express it in µg/mL; write the number only.

COc1ccccc1-c1nnc(Cn2cnc3ccccc32)o1 ... 16
Cc1nc2ccccc2n1Cc1nnc(-c2ccc(Cl)cc2)o1 ... 2
CCc1nnc(Cn2c(C)nc3ccccc32)o1 ... 4
CCc1nnc(Cn2cnc3ccccc32)o1 ... 32
Cc1nnc(Cn2cnc3ccccc32)o1 ... 16
ClCCc1nnc(Cn2cnc3ccccc32)o1 ... 16
COc1ccc(-c2nnc(Cn3c(C)nc4ccccc43)o2)cc1 ... 2
COc1ccccc1-c1nnc(Cn2c(C)nc3ccccc32)o1 ... 8
c1ccc(-c2nnc(Cn3cnc4ccccc43)o2)cc1 ... 16
CC1(C)S[C@@H]2[C@H](NC(=O)[C@H](N)c3ccccc3)C(=O)N2[C@H]1C(=O)O ... 2

Recall and state the measured MIC for Clc1ccccc1-c1nnc(Cn2cnc3ccccc32)o1 . 32

Recall and state the measured MIC for Cc1nc2ccccc2n1Cc1nnc(-c2ccc(O)cc2)o1 . 8

Recall and state the measured MIC for Cc1nc2ccccc2n1Cc1nnc(CCCl)o1 . 4

Recall and state the measured MIC for COc1ccc(-c2nnc(Cn3cnc4ccccc43)o2)cc1 . 16

Recall and state the measured MIC for ClCc1nnc(Cn2cnc3ccccc32)o1 . 16

Recall and state the measured MIC for Cc1nnc(Cn2c(C)nc3ccccc32)o1 . 4

----------
Each entry below carries its reported zone of inhibition at 300 µg/disc.
# System: Aspergillus niger
# assayName: Antifungal activity against Aspergillus niger at 300 ug/disk after 7 days by disk diffusion method
# Format: functional
# particulars: 168 h, read-out: IZ
Express it in mm; write the number only.

The following molecules have reported results that may help.
CCc1nnc(Cn2c(C)nc3ccccc32)o1 ... 10
Cc1nc2ccccc2n1Cc1nnc(-c2ccccc2Cl)o1 ... 16
ClCc1nnc(Cn2cnc3ccccc32)o1 ... 10

Recall and state the measured zone of inhibition at 300 µg/disc for Cc1nc2ccccc2n1Cc1nnc(CCl)o1 . 16

Recall and state the measured zone of inhibition at 300 µg/disc for COc1ccccc1-c1nnc(Cn2c(C)nc3ccccc32)o1 . 16

Recall and state the measured zone of inhibition at 300 µg/disc for Cc1nc2ccccc2n1Cc1nnc(-c2ccc(O)cc2)o1 . 16

Recall and state the measured zone of inhibition at 300 µg/disc for Cc1nnc(Cn2c(C)nc3ccccc32)o1 . 16

Recall and state the measured zone of inhibition at 300 µg/disc for Cc1nc2ccccc2n1Cc1nnc(-c2ccc(Cl)cc2)o1 . 10

Recall and state the measured zone of inhibition at 300 µg/disc for Cc1nc2ccccc2n1Cc1nnc(CCCl)o1 . 10

Recall and state the measured zone of inhibition at 300 µg/disc for ClCCc1nnc(Cn2cnc3ccccc32)o1 . 16

Recall and state the measured zone of inhibition at 300 µg/disc for Cc1nnc(Cn2cnc3ccccc32)o1 . 16

Recall and state the measured zone of inhibition at 300 µg/disc for COc1ccc(-c2nnc(Cn3c(C)nc4ccccc43)o2)cc1 . 16

----------
# Tested on: Pseudomonas aeruginosa
# assayName: Antibacterial activity against Pseudomonas aeruginosa MTCC 741 after 20 hrs by two fold dilution method
# Format: functional
# particulars: MTCC 741, 20 h
assayReadout: MIC (µg/mL)
Express it in µg/mL; write the number only.

The following compounds have reported results that may help.
Oc1ccc(-c2nnc(Cn3cnc4ccccc43)o2)cc1 ... 64
COc1ccc(-c2nnc(Cn3cnc4ccccc43)o2)cc1 ... 32
ClCc1nnc(Cn2cnc3ccccc32)o1 ... 32
COc1ccccc1-c1nnc(Cn2c(C)nc3ccccc32)o1 ... 64
Oc1ccccc1-c1nnc(Cn2cnc3ccccc32)o1 ... 64
COc1ccc(-c2nnc(Cn3c(C)nc4ccccc43)o2)cc1 ... 64

Please look at Cc1nnc(Cn2c(C)nc3ccccc32)o1 and tell me its recorded MIC on Pseudomonas aeruginosa. 64

Please look at ClCCc1nnc(Cn2cnc3ccccc32)o1 and tell me its recorded MIC on Pseudomonas aeruginosa. 32

----------
# System: Staphylococcus aureus
# assayName: Antibacterial activity against Staphylococcus aureus ATCC 29213 after 20 hrs by two fold dilution method
# Type: functional
# particulars: ATCC 29213, 20 h
assayReadout: MIC (µg/mL)
Express it in µg/mL; write the number only.

Please look at Oc1ccccc1-c1nnc(Cn2cnc3ccccc32)o1 and tell me its recorded MIC on Staphylococcus aureus. 32

Please look at Clc1ccc(-c2nnc(Cn3cnc4ccccc43)o2)cc1 and tell me its recorded MIC on Staphylococcus aureus. 32

Please look at Cc1nc2ccccc2n1Cc1nnc(-c2ccccc2)o1 and tell me its recorded MIC on Staphylococcus aureus. 8

Please look at Cc1nc2ccccc2n1Cc1nnc(CCl)o1 and tell me its recorded MIC on Staphylococcus aureus. 16

----------
# Tested on: Aspergillus niger
# assayName: Antifungal activity against Aspergillus niger at 300 ug/disk after 7 days by disk diffusion method
# Assay type: functional
# particulars: 168 h, read-out: IZ
assayReadout: zone of inhibition at 300 µg/disc

The following compounds have reported results that may help.
COc1ccc(-c2nnc(Cn3cnc4ccccc43)o2)cc1 ... < 10 mm
CCc1nnc(Cn2cnc3ccccc32)o1 ... < 10 mm

API: the following record is the query input.
Please look at COc1ccccc1-c1nnc(Cn2cnc3ccccc32)o1 and tell me its recorded zone of inhibition at 300 µg/disc on Aspergillus niger. < 10 mm
